target: Tyrosine-protein kinase BTK (Homo sapiens) (UniProt Q06187); conditions: at 1 µM
Sequence (Q06187 whole entry): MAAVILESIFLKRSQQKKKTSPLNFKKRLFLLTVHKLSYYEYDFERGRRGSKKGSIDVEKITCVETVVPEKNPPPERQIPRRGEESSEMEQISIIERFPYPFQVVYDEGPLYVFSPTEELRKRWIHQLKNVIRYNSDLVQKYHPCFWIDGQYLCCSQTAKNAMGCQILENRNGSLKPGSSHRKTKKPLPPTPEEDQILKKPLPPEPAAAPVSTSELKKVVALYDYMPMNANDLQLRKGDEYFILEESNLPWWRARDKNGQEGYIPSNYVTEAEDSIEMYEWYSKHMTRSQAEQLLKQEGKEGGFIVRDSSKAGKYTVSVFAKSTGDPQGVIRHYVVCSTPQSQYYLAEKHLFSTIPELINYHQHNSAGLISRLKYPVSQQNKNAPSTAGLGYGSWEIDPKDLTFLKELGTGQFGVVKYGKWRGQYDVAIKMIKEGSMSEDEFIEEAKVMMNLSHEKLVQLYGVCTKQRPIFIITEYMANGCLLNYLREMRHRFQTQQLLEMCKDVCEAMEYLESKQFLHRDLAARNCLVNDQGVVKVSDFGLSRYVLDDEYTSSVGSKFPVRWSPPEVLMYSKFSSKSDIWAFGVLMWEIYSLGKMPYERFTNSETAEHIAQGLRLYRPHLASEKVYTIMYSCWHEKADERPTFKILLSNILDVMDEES
Binary label based on residual activity with cut-off 70%: below gives Fulfilled, not below gives Not fulfilled.

Recorded results for 2 compounds are shown here.
[[record]]
compound = "O=C1Nc2cc(Br)ccc2/C1=C1/Nc2ccccc2/C1=N\\O"
label = "Fulfilled"

[[record]]
compound = "O=[N+]([O-])c1ccc(-c2nc(-c3ccc(F)cc3)c(-c3ccncc3)[nH]2)cc1"
label = "Not fulfilled"


// query Here's an entry: O=C1NC(=O)/C(=C/c2ccc3c(c2)OC(F)(F)O3)S1 . Is its residual activity below 70%?
// result Not fulfilled

// query Here's an entry: O=C1Nc2ccccc2/C1=C1/Nc2ccccc2/C1=N\OCCC(O)CO (stereo unspecified) . Is its residual activity below 70%?
// result Fulfilled

// query Here's an entry: c1ccc(-c2n[nH]cc2-c2ccnc3ccccc23)nc1 . Is its residual activity below 70%?
// result Not fulfilled

// query Here's an entry: O=c1c2ccccc2[nH]c(=S)n1CCN1CCC(=C(c2ccc(F)cc2)c2ccc(F)cc2)CC1 . Is its residual activity below 70%?
// result Not fulfilled

// query Here's an entry: O=C(Nc1cccc(Nc2nccc(Nc3cccc(C(F)(F)F)c3)n2)c1)C1CC1 . Is its residual activity below 70%?
// result Fulfilled

// query Here's an entry: Cc1cc2ncc(-c3ccccc3)nc2cc1C . Is its residual activity below 70%?
// result Not fulfilled

// query Here's an entry: COc1ccc(C(=O)Nc2sc3c(c2C(N)=O)CCCC3)cc1OC . Is its residual activity below 70%?
// result Not fulfilled

// query Here's an entry: CC(=O)O/N=C1\C(=C2\C(=O)Nc3cc(Br)ccc32)Nc2ccccc21 . Is its residual activity below 70%?
// result Fulfilled

// query Here's an entry: NC(=O)c1ccc2[nH]c(-c3ccc(Oc4ccc(Cl)cc4)cc3)nc2c1 . Is its residual activity below 70%?
// result Not fulfilled

// query Here's an entry: COc1cc2ncnc(Nc3ccc(O)c(Br)c3)c2cc1OC . Is its residual activity below 70%?
// result Not fulfilled

// query Here's an entry: Cc1nc2cc3nc(-c4cccs4)cnc3cc2n1C . Is its residual activity below 70%?
// result Not fulfilled

// query Here's an entry: Oc1ccc(-c2nc(-c3ccc(F)cc3)c(-c3ccncc3)[nH]2)cc1 . Is its residual activity below 70%?
// result Not fulfilled
